Assay: Acute toxicity, single intraperitoneal administration
Format: in vivo
Conditions: male, BDF1 [DBA2 × C57Bl6] hybrid, mouse, in vivo, ip; BDF1 mice, single intraperitoneal administration; probit analysis
observation type: LD50 at 14 days
Kindly format the answer as number then unit.

Exercise: Which LD50 at 14 days value is on record for `CN(C)CCCNc1c([N+](=O)[O-])c(Cl)cc2c1no[n+]2[O-].Cl` ?
Solution: 13.8 mg/kg

Exercise: Which LD50 at 14 days value is on record for `O=[N+]([O-])c1c(Cl)cc2c(no[n+]2[O-])c1NCCCN1CCOCC1` ?
Solution: 22 mg/kg
